Here we list molecules with their recorded IC50 when tested on Prothrombin (Homo sapiens, UniProt P00734).

>  <COMPOUND STRUCTURE>
CC(C)C[C@@H](NC1CCCCC1)C(=O)N1C[C@@H](C(F)(F)F)C[C@H]1C(=O)NCc1ccc2c(N)nccc2c1

>  <RECORDED VALUE>
> 5 µM

$$$$
>  <COMPOUND STRUCTURE>
CO[C@H]1C[C@@H](C(=O)NCc2ccc3c(N)nccc3c2)N(C(=O)[C@@H](CC(C)C)NC2CCCCC2)C1

>  <RECORDED VALUE>
> 5 µM

$$$$

Prompt: Tell us which IC50 value is on record for CC(C)C[C@@H](NC1CCCCC1)C(=O)N1C[C@@H](F)C[C@H]1C(=O)NCc1ccc2c(N)nccc2c1
Response: > 5 µM
